All figures here come from PubChem BioAssay (NCI).

# System: RPMI-8226 leukemia
# METHOD_SUMMARY: NCI tumour cell line growth inhibition, 48 h; in the data active = GI50 below about 0.43 µM; inactive = the rest
Classes used: active, inactive

COMPOUND	TARGET	CATEGORY_LABEL
CC(C)N(CCNc1nc(C(Cl)(Cl)Cl)nc2cc(Cl)ccc12)C(C)C	RPMI-8226 leukemia	inactive
COc1cc2c3c(n(CCCNCCCCN)c(=O)c2cc1OC)-c1cc2c(cc1C3=O)OCO2	RPMI-8226 leukemia	active
CC(C)(Oc1cccc(N2CCC[C@@H](C(=O)N(Cc3ccc(-c4cn[nH]c4)cc3)C3CC3)C2)c1)C(=O)N1CCNCC1	RPMI-8226 leukemia	inactive
Oc1ccc(/C=N/NC(=S)Nc2ccccc2)nc1	RPMI-8226 leukemia	inactive
COc1cc(C(=O)/C=C/c2cccnc2Nc2ccc(Cl)cc2)cc(OC)c1OC	RPMI-8226 leukemia	inactive
Cc1cc2c3c(nc4ccccc42)C(=O)c2cccnc2-c3n1	RPMI-8226 leukemia	active
[CH3][Ge]([CH3])([CH2]CC#N)[S]c1ccccc1	RPMI-8226 leukemia	inactive
CCOC(=O)C(Cc1ccccc1)n1c(O)c(/C=N/c2ncc(Cc3ccc(Cl)cc3Cl)s2)sc1=S (stereo unspecified)	RPMI-8226 leukemia	inactive
Cc1ccc2c(-c3ccnc(Nc4cccc(C(F)(F)F)c4)n3)c(-c3ccccc3)nn2n1	RPMI-8226 leukemia	inactive
O=C(Nc1nc2ccc(OC(F)(F)F)cc2s1)c1ccc(F)cc1	RPMI-8226 leukemia	inactive
COc1cc(C2C=C(C)N=C3SC=C(C)N32)cc(OC)c1OC (stereo unspecified)	RPMI-8226 leukemia	active
Cc1ncnc2c1ccn2[C@@H]1C[C@H](Oc2cc(C(F)F)c(F)c3c2CNCC3)[C@@H](O)[C@H]1O	RPMI-8226 leukemia	inactive
COc1cccc(N2C(=N)/C(=C3\Nc4ccccc4S3)CC2=O)c1	RPMI-8226 leukemia	inactive
CN1CCC(=C(c2ccc(Cl)cc2)c2ccccn2)CC1	RPMI-8226 leukemia	inactive
Cc1cc2c(C(C)C)c(O)c(O)c(/C=N/O)c2c(O)c1-c1c(C)cc2c(C(C)C)c(O)c(O)c(/C=N/O)c2c1O	RPMI-8226 leukemia	inactive
Cn1cc(Nc2nccc(-c3ccc4c(c3)CN(C3COC3)CC[C@H]4NC(=O)c3cn(C(C)(C)C)nn3)n2)cn1	RPMI-8226 leukemia	inactive
